B1: SPOPL (parent)
chain: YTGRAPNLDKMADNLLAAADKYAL

variants of: B1; test: protein stability index of a GFP-peptide fusion (GPS, HEK-293T) (PSI 1-6); higher = more stable; details: c terminus: a fixed tail appended;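 also: lentivirally expressed fusions sorted by FACS into six bins by GFP to DsRed ratio, PSI derived from sequencing read proportions per bin multiplied by bin number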
variants and their reported protein stability index
Reply briefly: the number, and no unit.

// below: answered variants
CONSTRUCT SEQUENCE	protein stability index
YTQRAPNLDKMADNLLAAADKYAL [G3Q]	2.7
YTGRAPNLDKMADNLLAIADKYAL [A18I]	1.42
YTGRAINLDKMADNLLAAADKYAL [P6I]	1.85
YTGRAPNLDKMADNDLAAADKYAL [L15D]	2.83
YTGRAPNLIKMADNLLAAADKYAL [D9I]	1.37
YTVRAPNLDKMADNLLAAADKYAL [G3V]	2.62
YTGRAPNLDKMADNLLAAADKYKL [A23K]	2.37
YTGRAPNLDKMADNLLAAIDKYAL [A19I]	2.76
YTERAPNLDKMADNLLAAADKYAL [G3E]	2.94
YTGRAPNRDKMADNLLAAADKYAL [L8R]	2.93

Q: For the variant YTGRLPNLDKMADNLLAAADKYAL [A5L] , what protein stability index is on record?
Result: 1.77

Q: For the variant YTGRAPNLDKSADNLLAAADKYAL [M11S] , what protein stability index is on record?
Result: 2.62

Q: For the variant YTGRAPNLDKMADNLLAAAKKYAL [D20K] , what protein stability index is on record?
Result: 1.4

Recorded values, source the supplement of paper PMC10567573.
